Assay: Metabolic stability in human plasma assessed as compound recovery after 2 hrs
Type: ADME, cell-free
Settings: read-out: Drug recovery
# reported remaining at 2 h; entries follow
Quick reminder: number only, in %, skip the unit.

• O=C(CCc1nc2ccccc2c(=O)[nH]1)N1CCN(C(=O)c2cccs2)CC1 = 50

# remaining at 2 h lookup, item O=C(CCc1nc2ccccc2c(=O)[nH]1)N1CCN(C(=O)c2ccc(F)cc2)CC1
57

* * *

Target: Poly [ADP-ribose] polymerase 1 (Homo sapiens)
Experiment: Inhibition of GST-tagged recombinant human PARP-1 expressed in Escherichia coli after 30 mins by fluorescence-based assay
Below is a list of entries, each paired with its recorded pIC50 value.
Units for pIC50: none; it is -log10 of a concentration expressed in mol/L.

Previously resolved entries follow.
• C=CCN1CCCC(C(=O)N2CCN(C(=O)CCc3nc4ccccc4c(=O)[nH]3)CC2)C1 (stereo not given) = 6.66
• CC(=O)Nc1ccc(NC(=O)CCn2c(=O)[nH]c(=O)c3ccccc32)cc1 = 6.12
• O=C(CCc1nc2ccccc2c(=O)[nH]1)N1CCN(C(=O)c2cccs2)CC1 = 8.01
• CN(C)CC(C)(C)CN/C=C1/C(=O)NC(=O)c2ccccc21 = 7.06
• Cc1ccc2c(c1)CCCN2C(=O)CCc1nc2ccccc2c(=O)[nH]1 = 5.99
• CC(NC(=O)COc1ccccc1C(N)=O)c1ccccc1 (stereo not given) = 6.09
• O=C(CCc1nc2ccccc2c(=O)[nH]1)N1CCN(C(=O)C2CCCO2)CC1 (stereo not given) = 6.89
• NC(=O)c1ccc(NC(=O)CCn2c(=O)[nH]c(=O)c3ccccc32)cc1 = 6.89

Query pIC50 on Poly [ADP-ribose] polymerase 1 (Homo sapiens) for O=C1CN(C(=O)CSc2nc3ccccc3c(=O)[nH]2)c2ccccc2N1
6.27

Value wanted: pIC50 (Poly [ADP-ribose] polymerase 1 (Homo sapiens)) of entry O=C(CCc1nc2ccccc2c(=O)[nH]1)N1CCN(C(=O)c2ccco2)CC1
7.55

* * *

Target: Poly [ADP-ribose] polymerase 1 (Homo sapiens, UniProt P09874)
Sequence (P09874 whole entry): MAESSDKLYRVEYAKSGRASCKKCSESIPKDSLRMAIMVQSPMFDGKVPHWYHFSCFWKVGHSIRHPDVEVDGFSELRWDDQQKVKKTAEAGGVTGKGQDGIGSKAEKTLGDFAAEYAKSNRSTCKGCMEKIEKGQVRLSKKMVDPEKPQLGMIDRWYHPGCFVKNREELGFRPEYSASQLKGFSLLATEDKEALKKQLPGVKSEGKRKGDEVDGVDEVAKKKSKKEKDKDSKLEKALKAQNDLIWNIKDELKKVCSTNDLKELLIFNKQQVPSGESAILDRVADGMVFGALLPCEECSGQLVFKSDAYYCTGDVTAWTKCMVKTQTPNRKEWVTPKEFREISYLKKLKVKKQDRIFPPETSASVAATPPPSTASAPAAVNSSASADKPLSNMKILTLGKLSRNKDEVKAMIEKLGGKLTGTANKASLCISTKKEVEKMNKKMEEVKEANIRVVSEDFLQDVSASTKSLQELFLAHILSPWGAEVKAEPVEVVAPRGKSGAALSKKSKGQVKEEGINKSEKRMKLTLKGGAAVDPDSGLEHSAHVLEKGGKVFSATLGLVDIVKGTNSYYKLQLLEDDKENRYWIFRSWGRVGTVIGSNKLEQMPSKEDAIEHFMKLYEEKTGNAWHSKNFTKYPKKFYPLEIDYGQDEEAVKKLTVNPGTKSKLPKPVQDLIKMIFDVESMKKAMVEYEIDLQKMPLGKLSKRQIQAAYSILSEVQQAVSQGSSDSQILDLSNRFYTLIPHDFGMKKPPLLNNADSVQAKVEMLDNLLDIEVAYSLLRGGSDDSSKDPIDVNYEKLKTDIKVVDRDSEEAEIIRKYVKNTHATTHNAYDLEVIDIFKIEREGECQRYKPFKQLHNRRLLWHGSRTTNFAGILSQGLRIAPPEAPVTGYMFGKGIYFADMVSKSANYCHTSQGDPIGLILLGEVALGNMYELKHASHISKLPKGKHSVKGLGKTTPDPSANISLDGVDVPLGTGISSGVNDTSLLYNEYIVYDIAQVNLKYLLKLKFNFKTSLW
Assay: Inhibition of GST-tagged recombinant human PARP-1 expressed in Escherichia coli after 30 mins by fluorescence-based assay
parameter_measured: pIC50
In simple prose, pIC50 is minus the logarithm base ten of a concentration in moles per litre.

Worked cases, pIC50 given:
- NC(=O)c1ccccc1OCC(=O)N1CC(=O)Nc2cc(C(F)(F)F)ccc21: 5.97
- O=C(CCc1nc2ccccc2c(=O)[nH]1)N1CCN(C(=O)C2CCCC2)CC1: 6.96
- O=C(CCc1nc2ccccc2c(=O)[nH]1)N1CCN(C(=O)C2CCCNC2)CC1 (stereo not given): 7.50
- O=C(CN1CCN(C(=O)Cc2n[nH]c(=O)c3ccccc23)CC1)Nc1cccc(F)c1: 5.96
- CCN(CC(=O)Cc1c(F)cccc1F)C(=O)Cc1n[nH]c(=O)c2ccccc12: 6.22
- NC(=O)c1ccccc1OCC(=O)N1CCc2ccccc2C1: 7.37

For O=C(CCn1c(=O)[nH]c(=O)c2ccccc21)Nc1ccccc1F , what is its reported pIC50?
5.82

Quick one: pIC50 for CC(C)NS(=O)(=O)c1ccc(NC(=O)Cc2n[nH]c(=O)c3ccccc23)cc1 ?
6.16

# query: pIC50 of entry Cc1ccc(NS(=O)(=O)c2ccc(NC(=O)Cn3c(=O)[nH]c(=O)c4ccccc43)cc2C)c(C)c1
5.89

Return reported pIC50; argument: NS(=O)(=O)Nc1ccc(NC(=O)CCn2c(=O)[nH]c(=O)c3ccccc32)cc1
6.39
